Test system: M19-MEL melanoma
Could you please report measured GI50 for the items listed next?

Data request: Provide the documented GI50 with M19-MEL melanoma as the system for CCN(CCCl)CCCNc1c2ccccc2nc2ccc(OC)cc12
Data returned: 323 µM

Data request: Another compound to look at: O=[Se](=O)c1ccccc1.O=[Se](=O)c1ccccc1.[Cu]
Data returned: 5.95 µM

Data request: Another: N#C[S-].[Nd+3].c1ccc(-c2ccccn2)nc1.c1ccc(-c2ccccn2)nc1.c1ccc(-c2ccccn2)nc1
Data returned: 9.78 µM

Data request: Do the same for CC(=O)OCC1OC(OC2CC3C(C)(C)C(O)CC[C@]3(C)C3CCC45CC4(CC[C@H]5C(C)CC(O)C4OC4(C)C)[C@]23C)C(O)C(O)C1O (some centres undefined) please
Data returned: 3.7 µM
